The measured values listed here are drawn from PubChem BioAssay.

List of composite z-score values.
Tested on: Human papillomavirus type 1a E7 protein (residues 1-88)
Assay: HPV1a E7 small-molecule binders, primary screen, biochemical, small-molecule microarray, residues 1-88, 635 nm (AID 1129)
Conditions: small-molecule microarray binding, fluorescence 635 nm; higher = more signal
Would you mind answering with just the numeric figure?

Prompt: // returns reported composite z-score for input CC(C)c1ccc(NN2C(C(O)c3cc(C(F)(F)F)cc(C(F)(F)F)c3)C=CC3C(=O)N(c4ccccc4)C(=O)C32)cc1 (stereo not given)
Completion: 1.22

Prompt: One more compound: COC(=O)[C@@]1(Cc2ccc(F)cc2)[C@H]2c3cc(C(=O)N4CCCC4)n(Cc4cc(C)n(C)n4)c3C[C@H]2CN1C(=O)c1ccccc1
Completion: 1.26

Prompt: One more compound: Cc1ccc(S[C@]2(C(=O)NCC(C)C)CC(=O)N(Cc3cc(C(F)(F)F)cc(C(F)(F)F)c3)[C@@H]2c2ccc(CO)cc2I)cc1
Completion: -1.08

Prompt: One more compound: O=C(O)[C@@]1(CCS(=O)(=O)c2ccccc2)COC(c2ccc(OCCCO)cc2)=N1
Completion: -0.0191

Prompt: One more compound: CN(C)C(=O)[C@]1(Cc2ccccc2CN=[N+]=[N-])N=C(c2ccc(OCCCO)cc2)O[C@@H]1c1ccccc1CN=[N+]=[N-]
Completion: 1.25

Prompt: One more compound: CN1C(=O)C2C=CC(C(O)c3cc(C(F)(F)F)cc(C(F)(F)F)c3)N(N3CCCCC3)C2C1=O (stereo not given)
Completion: 1.03

Prompt: One more compound: CC(C)(C)OC(=O)CC[C@@]1(C(N)=O)N=C(c2ccc(OCCCO)cc2)O[C@@H]1c1ccccc1
Completion: 1.13

Prompt: One more compound: COc1ccc(CCNC(=O)[C@@H]2c3ccccc3C(=O)N(C3Cc4ccccc4C3)[C@H]2c2ccc(CO)cc2)cc1
Completion: 0.655

Prompt: One more compound: COc1ccc(C(O)C2C=CC3C(=O)N(C)C(=O)C3N2N2CCCCC2)c2ccccc12 (stereo not given)
Completion: 1.26

Prompt: One more compound: CCCC[C@H]1OB(O)C[C@H]2C1=C(COc1ccccc1)C[C@H]1C(=O)N(C)C(=O)[C@H]12
Completion: 0.0417

Prompt: One more compound: COc1ccc(C(O)C2C=CC3C(=O)N(c4ccccc4)C(=O)C3N2Nc2ccc(C(C)C)cc2)cc1OCc1ccccc1 (stereo not given)
Completion: 1.17

Prompt: One more compound: C=CC[C@@]1(C(N)=O)N=C(c2ccc(OCCCO)cc2)O[C@@H]1c1ccccc1CN=[N+]=[N-]
Completion: 1.17

Prompt: One more compound: C=CCOC(=O)[C@H]1[C@@H]2C(=O)O[C@@H](c3ccccc3)[C@@H](c3ccccc3)N2[C@@H](c2ccc(OCCOC(=O)[C@@H]3C[C@@H]4C(=O)N5CCC[C@H]5C(=O)N4[C@@H]3c3cccc(OCCO)c3)cc2)[C@]12C(=O)Nc1ccccc12
Completion: 1.19

Prompt: One more compound: COCCn1c(C(=O)N2CCCC2)cc2c1C[C@H]1CN(C(=O)c3ccccc3)[C@@](Cc3ccc(F)cc3)(C(=O)OC)[C@@H]21
Completion: 1.27

Prompt: One more compound: Cc1ccc(S[C@]2(C(=O)NCCN3CCOCC3)CC(=O)N(Cc3ccccc3)[C@@H]2c2ccc(CO)cc2I)cc1
Completion: -0.104
